Listed here are molecules together with their documented IC50.
Test system: TNFα
protocol-description: TNFα production in IFN-primed, SAC-stimulated THP-1 cells (ELISA)
Type: cell-based, Human
cond: THP-1 cells primed by IFNα (100 U/mL) 22 h, stimulated with 0.025% SAC, supernatants after 24 h
Value expressed in µM; do not type the unit.

Form field, IC50 with TNFα, item COC1=CC(=O)OC(CCc2ccc(F)cc2)C1 (centres unmarked) [Compound 18] : 70

Please look at the following molecule next.
IC50 value, target or system TNFα, for COC1=CC(=O)OC(CCc2ccc(F)c(F)c2)C1 (centres unmarked) [Compound 17] : 80

---

Tested on: Human monocytic THP-1 cells
protocol-description: Cell viability by MTS bioreduction
Type: cell-based
cond: survival vs compound-free control, read-out: CC50 (μM) Cell Toxicity
readout-label: CC50

Worked cases, answers included:
Lab note: compound COC1=CC(=O)OC(C=Cc2ccc(C#N)cc2)C1 (stereo not drawn) tested on Human monocytic THP-1 cells; recorded CC50 was > 100 µM

CC50 on Human monocytic THP-1 cells for COC1=CC(=O)OC(CCc2ccc(F)c(F)c2)C1 (stereo not drawn) is > 100 µM

--- query ---
Assay Human monocytic THP-1 cells, sample COC1=CC(=O)OC(CCc2ccc(F)cc2)C1 (stereo not drawn) , CC50 read: > 100 µM

---

protocol-description: Cell viability by MTS bioreduction
Type: cell-based, Human
cond: human, THP-1 monocytic cells (IFNα-primed, SAC-stimulated), THP-1 cells, survival vs compound-free control, read-out: CC50 (μM) Cell Toxicity
// CC50 at 24 h lookup, one value per entry

Lab note: `COC1=CC(=O)O[C@@H](CCc2cccc(F)c2)C1` gave CC50 at 24 h of > 100 µM

Please fill in: CC50 at 24 h reported for `O=C1CC(=O)O[C@@H](CCc2ccc(F)cc2)C1` = > 100 µM

CC50 at 24 h reported for this molecule `O=C1CC(=O)O[C@@H](CCc2ccccc2)C1` : > 100 µM

Documented CC50 at 24 h of `COC1=CC(=O)O[C@@H](CCc2ccc(F)cc2)C1` : > 100 µM

Please fill in: CC50 at 24 h reported for `COc1cc(CC[C@H]2CC=CC(=O)O2)cc(OC)c1OC` = 100 µM

For reference, reported CC50 at 24 h for `O=C1C=CC[C@H](CCc2cccc(F)c2)O1` stands at 100 µM

Quick note, CC50 at 24 h for COC(=O)c1ccc(CCC2CC(OC)=CC(=O)O2)cc1 (stereo not shown) landed at > 100 µM

---

Items are presented alongside their recorded CC50 at 24 h.
protocol-description: Cell viability by MTS bioreduction
Format: cell-based, Human
cond: human, THP-1 monocytic cells (IFNα-primed, SAC-stimulated), THP-1 cells, survival vs compound-free control, read-out: CC50 (μM) Cell Toxicity
Protocol: Human monocytic THP-1 cells were primed by IFNα (100 U/mL) for 22 h and then stimulated with 0.025% SAC in the presence of different concentrations of a test compound. […] Cell viability was assessed using the bioreduction of MTS [3-(4,5-dimethylthiazol-2-yl)-5-(3-carboxymethoxyphenyl)-2-(4-sulfophenyl)-2H-tetrazolium] (Promega, Madison, Wis.), with cell survival estimated as the ratio of the absorbance in compound-treated groups versus compound-free control. […]

Example entries begin here.
Please fill in: CC50 at 24 h reported for CC(C)OC1=CC(=O)O[C@@H](CCc2ccccc2)C1 [Compound 19] = > 100 µM

Memo: O=C1C=C(O)CC(/C=C/c2cccnc2)O1 (stereo not shown) [Compound 5] , reported CC50 at 24 h: > 100 µM

Briefly, CC50 at 24 h measured for O=C1CC(=O)O[C@@H](CCc2cccc(F)c2)C1 [Compound 4] : > 100 µM

The compound listed as COC1=CC(=O)OC(/C=C/c2ccc(F)c(F)c2)C1 (stereo not shown) [Compound 14] has a reported CC50 at 24 h of > 100 µM

// recorded CC50 at 24 h for COC1=CC(=O)OC(CCc2ccc[nH]2)C1 (stereo not shown) [Compound 6] : > 100 µM

---
Measured CC50 at 24 h, COC1=CC(=O)OC(/C=C/c2ccc(F)c(F)c2F)C1 (stereo not shown) [Compound 15] : > 100 µM

Please fill in: CC50 at 24 h reported for COC1=CC(=O)O[C@@H](CCc2cccnc2)C1 [Compound 21] = > 100 µM

CC50 at 24 h for O=C1C=CC[C@H](CCc2ccccc2)O1 [Compound 10, (S)-6-Phenethyl-5,6-dihydro-pyran-2-one] is 100 µM

CC50 at 24 h in this record for CCOC1=CC(=O)O[C@@H](CCc2ccccc2)C1 [Compound 20] : > 100 µM

Data point: COC1=CC(=O)O[C@@H](CCc2ccccc2F)C1 [Compound 7] ; CC50 at 24 h = > 100 µM
